Test details: amyloid nucleation score (Sup35N fusion, yeast selection) (log enrichment); library NNK3; higher = more nucleation; inactive = no reads after selection;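 further: zero at mode of non-aggregating sequences after 7 days selection at 30°C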
Property label: amyloid nucleation score

VWLMGMTYF = inactive
NTLDERDCRSKLFAFLLRPS = inactive
LFDIVSQITLWQGPTHAFFK = inactive
PCICMVIQSGLDEYAYHVQR = inactive
EIFGSISG = inactive
TFPLAECRWIVWRLDDSLM = inactive

// below: amyloid nucleation score requested for another substance
Query amyloid nucleation score for FILGWCGIYSTACPNTSTGT inactive

###

Test details: amyloid nucleation score (Sup35N fusion, yeast selection) (log enrichment); library NNK1; higher = more nucleation; inactive = no reads after selection
Assign satisfied whenever amyloid nucleation score does not fall below 0.5; assign not satisfied whenever it does.

Here's what some known entries look like.
LSIFVF = satisfied
HVVKCGHYLRRVRNMGKLEF = not satisfied
KNCAAFLHRHGFEVAQRGTC = not satisfied

Would you kindly look at the next entry?
Check the entry TYNCILNSCSSSYTKVLV : does amyloid nucleation score equal or exceed 0.5? satisfied

###

Test details: amyloid nucleation score (Sup35N fusion, yeast selection) (log enrichment); library NNK2; higher = more nucleation; inactive = no reads after selection
Categorized via amyloid nucleation score: bucket A: < 0.2; bucket B: ≥ 0.2 and < 2; bucket C: ≥ 2

Examples with answers:
GYYAPIPLKCVDSEASLRYR = bucket B
TLQLSSADPGLNAFSDVYRV = bucket A
INMTLELDSVRRNLLYAGGG = bucket A
AGMMFKR = bucket B
IPTTQLAHCGQVACPARVVP = bucket B
WFDWLVYSGLDHGRFIEVLK = bucket A
VCVFMDFHLYMMSARQSTKD = bucket C
ASGVYHDSFRRLCCMGDLSC = bucket A

Could you tell me which band YRILSNASWTFAVVQSCNPY belongs to? bucket C

Bin this entry: VASYAIGSFYADVACVEPRY bucket B

Category of FSIGCVMGLAINLSGFALWV , please. bucket B

Please let me know in which category the item TLIAYCLL belongs. bucket C

Which category fits this record: ICIVVVCDFCIYRMCATGTV bucket B

Class? Entry: VIVCCGSCLHRE bucket C

###

Test details: amyloid nucleation score (Sup35N fusion, yeast selection) (log enrichment); library NNK1; higher = more nucleation; inactive = no reads after selection
We use 0.3 as the dividing line for amyloid nucleation score: on or above the line is condition met, below is condition not met.

Worked examples follow.
CQYVFVCRHFFLGKNHEALE = condition not met
PHSSFPESSCKGSGSVSWAE = condition not met
GVQAVNVEVVNEVCLVKEAT = condition not met
FNAIWVVLRVRNREYKTSVL = condition met
GCILHFHSGRGYIGSRMVGW = condition met
YLNYWFR = condition not met

Is reported amyloid nucleation score greater than or equal to 0.3 here: GYMFPVFSMIGFLNTNVWSK condition met

###

Test details: amyloid nucleation score (Sup35N fusion, yeast selection) (log enrichment); library NNK1; higher = more nucleation; inactive = no reads after selection
Property label: amyloid nucleation score
# print the numeric value only

// worked examples, amyloid nucleation score included
MSNFLTELGNNSTHREDGER = 0.501
FHSLRLRLMRNYG = -0.31
SHVEVDEEQVFSMSMVPTGE = -0.106
ALNFTYLVSSNKHRSED = 5.12
FKCYWAVCIELWYGCSTVGL = 0.588

Give the measured amyloid nucleation score for DMLSEIFGSSPNEYAPH 0.521

# return recorded amyloid nucleation score for entry WRLFIWDRGSLWFEISYYFR -0.164
